targetOrSystem: PI3Kα (p110α/p85α) (Homo sapiens (Human))
Sequence (P42336 whole entry): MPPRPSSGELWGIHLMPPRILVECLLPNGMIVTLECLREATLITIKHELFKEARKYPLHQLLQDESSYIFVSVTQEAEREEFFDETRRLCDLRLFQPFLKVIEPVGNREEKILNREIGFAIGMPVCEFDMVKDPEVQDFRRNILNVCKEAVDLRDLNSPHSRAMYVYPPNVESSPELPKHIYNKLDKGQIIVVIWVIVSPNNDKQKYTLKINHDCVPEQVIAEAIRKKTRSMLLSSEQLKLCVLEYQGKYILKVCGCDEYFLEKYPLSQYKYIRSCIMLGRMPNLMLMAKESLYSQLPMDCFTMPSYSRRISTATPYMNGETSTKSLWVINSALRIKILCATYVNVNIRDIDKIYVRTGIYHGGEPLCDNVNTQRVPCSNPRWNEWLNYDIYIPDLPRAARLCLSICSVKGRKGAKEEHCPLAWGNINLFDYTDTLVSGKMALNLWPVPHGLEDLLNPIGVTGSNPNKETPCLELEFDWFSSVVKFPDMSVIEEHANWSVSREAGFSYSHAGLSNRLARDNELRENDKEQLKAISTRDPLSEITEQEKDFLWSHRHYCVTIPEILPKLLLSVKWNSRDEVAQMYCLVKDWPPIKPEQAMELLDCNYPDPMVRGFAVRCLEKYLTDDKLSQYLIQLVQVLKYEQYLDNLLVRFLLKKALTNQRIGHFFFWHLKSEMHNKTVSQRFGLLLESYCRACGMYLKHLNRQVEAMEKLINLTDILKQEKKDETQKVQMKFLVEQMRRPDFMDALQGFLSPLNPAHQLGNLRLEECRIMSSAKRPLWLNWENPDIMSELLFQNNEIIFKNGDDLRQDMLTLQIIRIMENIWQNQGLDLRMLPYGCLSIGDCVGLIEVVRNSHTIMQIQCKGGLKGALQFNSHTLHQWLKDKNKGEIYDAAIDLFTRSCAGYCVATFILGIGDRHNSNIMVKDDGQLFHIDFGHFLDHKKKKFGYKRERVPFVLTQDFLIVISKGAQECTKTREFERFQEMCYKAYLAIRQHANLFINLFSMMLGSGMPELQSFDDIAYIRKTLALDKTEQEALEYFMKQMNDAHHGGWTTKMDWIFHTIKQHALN
Sequence (P27986 whole entry partner): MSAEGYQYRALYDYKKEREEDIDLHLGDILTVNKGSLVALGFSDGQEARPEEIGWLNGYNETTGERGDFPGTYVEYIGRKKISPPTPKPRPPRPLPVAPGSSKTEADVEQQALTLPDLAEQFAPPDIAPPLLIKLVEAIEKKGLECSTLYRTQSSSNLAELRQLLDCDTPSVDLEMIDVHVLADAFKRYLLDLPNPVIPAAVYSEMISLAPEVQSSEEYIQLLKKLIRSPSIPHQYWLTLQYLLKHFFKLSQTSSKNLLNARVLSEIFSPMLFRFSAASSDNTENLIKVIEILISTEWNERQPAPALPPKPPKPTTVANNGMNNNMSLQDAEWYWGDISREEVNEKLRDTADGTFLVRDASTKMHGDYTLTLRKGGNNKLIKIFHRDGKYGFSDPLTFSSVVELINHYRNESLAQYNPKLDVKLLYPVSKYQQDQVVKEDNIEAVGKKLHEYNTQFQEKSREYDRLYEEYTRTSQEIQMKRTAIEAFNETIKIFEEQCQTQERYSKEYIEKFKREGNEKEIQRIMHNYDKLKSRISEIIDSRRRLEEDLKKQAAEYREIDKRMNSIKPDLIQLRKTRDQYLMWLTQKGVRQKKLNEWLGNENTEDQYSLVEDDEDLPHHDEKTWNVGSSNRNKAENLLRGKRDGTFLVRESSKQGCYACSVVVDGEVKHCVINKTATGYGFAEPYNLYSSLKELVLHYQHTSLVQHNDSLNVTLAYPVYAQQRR
assayText: PI3Kα enzymatic test by measuring the consumption of ATP
Type: biochemical
Experimental: Model 2: PI3Kα Enzymatic Test by Measuring the Consumption of ATP. The test uses a lucifeurerin/luciferase system to measure the concentration of ATP and its consumption during the enzymatic reaction. The test is performed in 96-well format (Corning/Costar 96 black flat-bottomed half-wells plate, ref. 3694) in a total volume of 30 μl. […] The IC50 values are determined by the preparation of successive threefold dilutions on at least a scale of 10 000.
Quick reference: PI3Ka IC50 of the listed items.

Reference set (3 entries):
{"columns": ["compound", "PI3Ka IC50"],
 "data": [
  ["CCN1CC(C)(C)Oc2nc(N3C4CCC3COC4)nc(-c3ccc(NC(=O)Nc4cc(OC)ccn4)cc3F)c2C1=O [Example 89]", ">10 µM"],
  ["COCCN1CC(C)(C)Oc2nc(N3CC4CCC(C3)O4)nc(-c3ccc(NC(=O)Nc4ccc(OC)nc4)c(F)c3)c2C1=O [Example 178]", ">10 µM"],
  ["CCN1CC(C)(C)Oc2nc(N3CCOCC3)nc(-c3ccc(NC(=O)OC)cc3)c2C1=O [Example 103]", "6.59 µM"]
]}

Please look at the following compound next.
Requested field: PI3Ka IC50. Item: CCN1CC(C)(C)Oc2nc(N3CC4CCC(C3)O4)nc(-c3ccc(NC(=O)NCc4ccc(OC)nc4)c(F)c3)c2C1=O [Example 145]
>10 µM

Reference source for all entries: patent US9120812B2
